Hey, just so you know, these numbers are from paper PMC6585632.

assay: Effect of a high-fat meal on single-dose pharmacokinetics; type: in vivo, human; details: human, plasma, oral, 40 mg, Cmax, median, Part 1, single dose 40 mg, cycle 1 day –7 fasted, n 3

| SMILES INPUT | Cmax [ng/mL] |
| --- | --- |
| CNCc1ccc(-c2[nH]c3cc(F)cc4c3c2CCNC4=O)cc1 | 57.6 |

====

assay: Steady-state pharmacokinetics in food effect cohorts; format: in vivo, human; settings: human, plasma, oral, 300 mg, t1/2, median, Part 1 food effect cohort, 300 mg QD, cycle 1 day 15 steady state, n 3

| SMILES INPUT | UNIT INFO | half-life |
| --- | --- | --- |
| CNCc1ccc(-c2[nH]c3cc(F)cc4c3c2CCNC4=O)cc1 | h | 27.5 |

====

assay: Effect of a high-fat meal on single-dose pharmacokinetics; format: in vivo, human; conditions: human, plasma, oral, 40 mg, AUC0‐24h, median, Part 1, single dose 40 mg, cycle 1 day –7 fasted, n 3

| SMILES INPUT | AUC / ng·h/mL |
| --- | --- |
| CNCc1ccc(-c2[nH]c3cc(F)cc4c3c2CCNC4=O)cc1 | 468 |

====

experiment: Effect of a high-fat meal on single-dose pharmacokinetics; assay type: in vivo, human; conditions: human, plasma, oral, 40 mg, t1/2, median, Part 1, single dose 40 mg, cycle 1 day 1 fed (high-fat meal), n 3

| MOLECULE | UNIT INFO | half-life |
| --- | --- | --- |
| CNCc1ccc(-c2[nH]c3cc(F)cc4c3c2CCNC4=O)cc1 [rucaparib] | h | 12.7 |

====

experiment: Effect of a high-fat meal on single-dose pharmacokinetics; format: in vivo, human; settings: human, plasma, oral, 300 mg, AUC0‐24h, arithmetic mean, Part 1, single dose 300 mg, cycle 1 day 1 fed (high-fat meal), n 5
READOUT NAME: AUC

| MOLECULE | OBSERVED RESULT |
| --- | --- |
| CNCc1ccc(-c2[nH]c3cc(F)cc4c3c2CCNC4=O)cc1 [rucaparib] | 6890 ng·h/mL |

====

format: in vivo, human; conditions: human, plasma, oral, Median tmax, range over cohorts, Part 1 QD cohorts
READOUT NAME: Tmax

| SMILES INPUT | OBSERVED RESULT |
| --- | --- |
| CNCc1ccc(-c2[nH]c3cc(F)cc4c3c2CCNC4=O)cc1 | 1.5 to 4 h |

====

experiment: Effect of a high-fat meal on single-dose pharmacokinetics; format: in vivo, human; conditions: human, plasma, oral, 40 mg, AUC0‐24h, arithmetic mean, Part 1, single dose 40 mg, cycle 1 day 1 fed (high-fat meal), n 2

| MOLECULE | AUC |
| --- | --- |
| CNCc1ccc(-c2[nH]c3cc(F)cc4c3c2CCNC4=O)cc1 [rucaparib] | 794 ng·h/mL |

====

test: Effect of a high-fat meal on single-dose pharmacokinetics; assay type: in vivo, human; conditions: human, plasma, oral, 40 mg, t1/2, median, Part 1, single dose 40 mg, cycle 1 day –7 fasted, n 3

| SMILES INPUT | half-life (h) |
| --- | --- |
| CNCc1ccc(-c2[nH]c3cc(F)cc4c3c2CCNC4=O)cc1 | 8.16 |

====

assay: Steady-state pharmacokinetics in food effect cohorts; type: in vivo, human; settings: human, plasma, oral, 300 mg, AUC0‐t, arithmetic mean, Part 1 food effect cohort, 300 mg QD, cycle 1 day 15 steady state, t = 24 hours, n 3

| MOLECULE | UNIT INFO | AUC |
| --- | --- | --- |
| CNCc1ccc(-c2[nH]c3cc(F)cc4c3c2CCNC4=O)cc1 [rucaparib] | ng·h/mL | 13300 |

====

test: Effect of a high-fat meal on single-dose pharmacokinetics; assay type: in vivo, human; conditions: human, plasma, oral, 40 mg, t1/2, arithmetic mean, Part 1, single dose 40 mg, cycle 1 day 1 fed (high-fat meal), n 3

| MOLECULE | half-life (h) |
| --- | --- |
| CNCc1ccc(-c2[nH]c3cc(F)cc4c3c2CCNC4=O)cc1 [rucaparib] | 12.6 |

====

assay: Effect of a high-fat meal on single-dose pharmacokinetics; format: in vivo, human; conditions: human, plasma, oral, 40 mg, tmax, median, Part 1, single dose 40 mg, cycle 1 day –7 fasted, n 3

| COMPOUND | Tmax, h |
| --- | --- |
| CNCc1ccc(-c2[nH]c3cc(F)cc4c3c2CCNC4=O)cc1 [rucaparib] | 4 |

====

assay: Effect of a high-fat meal on single-dose pharmacokinetics; assay type: in vivo, human; settings: human, plasma, oral, 40 mg, Cmax, median, Part 1, single dose 40 mg, cycle 1 day 1 fed (high-fat meal), n 3

| SMILES INPUT | Cmax, ng/mL |
| --- | --- |
| CNCc1ccc(-c2[nH]c3cc(F)cc4c3c2CCNC4=O)cc1 | 71.1 |

====

test: Effect of a high-fat meal on single-dose pharmacokinetics; format: in vivo, human; settings: human, plasma, oral, 40 mg, t1/2, arithmetic mean, Part 1, single dose 40 mg, cycle 1 day –7 fasted, n 3
READOUT NAME: half-life

| SMILES INPUT | OBSERVED RESULT |
| --- | --- |
| CNCc1ccc(-c2[nH]c3cc(F)cc4c3c2CCNC4=O)cc1 | 636 min |

====

assay: Steady-state pharmacokinetics in food effect cohorts; assay type: in vivo, human; details: human, plasma, oral, 40 mg
READOUT NAME: Tmax (h)

| COMPOUND | READOUT NAME | OBSERVED RESULT |
| --- | --- | --- |
| CNCc1ccc(-c2[nH]c3cc(F)cc4c3c2CCNC4=O)cc1 [rucaparib] | Tmax | 4 |

====

assay: Steady-state pharmacokinetics in food effect cohorts; format: in vivo, human; settings: human, plasma, oral, 600 mg, Cmax, arithmetic mean, Part 3, 600 mg BID, cycle 1 day 15 steady state, n 18

| SMILES INPUT | Cmax (ng/mL) |
| --- | --- |
| CNCc1ccc(-c2[nH]c3cc(F)cc4c3c2CCNC4=O)cc1 | 1940 |

====

assay: Steady-state pharmacokinetics in food effect cohorts; type: in vivo, human; details: human, plasma, oral, 300 mg, t1/2, arithmetic mean, Part 1 food effect cohort, 300 mg QD, cycle 1 day 15 steady state, n 3

| COMPOUND | half-life, h |
| --- | --- |
| CNCc1ccc(-c2[nH]c3cc(F)cc4c3c2CCNC4=O)cc1 [rucaparib] | 20 |

====

test: Effect of a high-fat meal on single-dose pharmacokinetics; type: in vivo, human; settings: human, plasma, oral, 40 mg, AUC0‐24h, median, Part 1, single dose 40 mg, cycle 1 day 1 fed (high-fat meal), n 2

| COMPOUND | AUC / ng·h/mL |
| --- | --- |
| CNCc1ccc(-c2[nH]c3cc(F)cc4c3c2CCNC4=O)cc1 [rucaparib] | 794 |

====

assay type: in vivo, human; settings: human, plasma, oral, cohort median tmax, range, across all doses and tablet strengths tested (Parts 1 and 3)
READOUT NAME: Tmax

| SMILES INPUT | READOUT NAME | OBSERVED RESULT |
| --- | --- | --- |
| CNCc1ccc(-c2[nH]c3cc(F)cc4c3c2CCNC4=O)cc1 | Tmax | 1.5 to 6 h |

====

assay: Effect of a high-fat meal on single-dose pharmacokinetics; format: in vivo, human; conditions: human, plasma, oral, 40 mg, AUC0‐24h, arithmetic mean, Part 1, single dose 40 mg, cycle 1 day –7 fasted, n 3
READOUT NAME: AUC (ng·h/mL)

| COMPOUND | READOUT NAME | OBSERVED RESULT |
| --- | --- | --- |
| CNCc1ccc(-c2[nH]c3cc(F)cc4c3c2CCNC4=O)cc1 [rucaparib] | AUC | 741 |

====

experiment: Effect of a high-fat meal on single-dose pharmacokinetics; type: in vivo, human; settings: human, plasma, oral, 40 mg, Cmax, arithmetic mean, Part 1, single dose 40 mg, cycle 1 day 1 fed (high-fat meal), n 3
READOUT NAME: Cmax (ng/mL)

| SMILES INPUT | READOUT NAME | OBSERVED RESULT |
| --- | --- | --- |
| CNCc1ccc(-c2[nH]c3cc(F)cc4c3c2CCNC4=O)cc1 | Cmax | 64.8 |
